A collection of molecules and their measured melting point

Worked cases, answers included:
C[C@H](Nc1nc2c(c(=O)n1N(C)C)CN(C(=O)c1ccc(Cl)cc1)CC2)c1ccc(Cl)cc1.Cl    121 to 123 °C
C[C@H](Nc1nc2c(c(=O)n1N(C)C)CN(C(=O)c1ccc(Cl)cc1)CC2)c1ccc(C(F)(F)F)cc1.Cl    116 to 118 °C
CN(C)n1c(NCc2ccc(C(F)(F)F)c(F)c2)nc2c(c1=O)CN(C(=O)c1ccc(Cl)cc1)CC2.Cl    122 to 124 °C
CC[C@@H](Nc1nc2c(c(=O)n1OC)CN(C(=O)c1ccc(Cl)cc1)CC2)c1ccc(Cl)cc1.Cl    127 to 129.5 °C

Pending molecule:
The reported melting point of the molecule CCC(Nc1nc2c(c(=O)n1OC)CN(C(=O)c1ccc(Cl)cc1)CC2)c1ccc(Cl)cc1.Cl (centres unmarked) was 118.1 to 123.7 °C

###

assayed_system: human GPR10 (Homo sapiens (Human), UniProt P49683)
Sequence (P49683 whole entry): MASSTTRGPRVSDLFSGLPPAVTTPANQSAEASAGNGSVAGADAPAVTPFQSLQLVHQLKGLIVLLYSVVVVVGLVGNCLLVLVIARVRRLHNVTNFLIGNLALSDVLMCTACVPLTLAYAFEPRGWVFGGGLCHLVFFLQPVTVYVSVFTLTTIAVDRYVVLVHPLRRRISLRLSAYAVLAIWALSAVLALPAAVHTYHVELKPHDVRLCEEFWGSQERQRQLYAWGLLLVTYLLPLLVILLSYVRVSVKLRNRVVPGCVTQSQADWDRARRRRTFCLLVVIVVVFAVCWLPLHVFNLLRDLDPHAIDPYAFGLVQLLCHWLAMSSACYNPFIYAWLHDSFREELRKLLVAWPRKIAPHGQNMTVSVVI
assay_details: Inhibitory activity on binding of [3H]-PrRP to GPR10 (HEK 293 cell membrane fraction)
assay_setup: [3H]-PrRP 1 nM, human GPR10-expressing HEK 293 cell membrane fraction; Ki from IC50 by Cheng-Prussoff formula
Protocol: Inhibitory Activity on Binding of [^3H]-PrRP to GPR10 […] The binding inhibition rate was calculated based on calculating formula: 100−(radio activity when a compound is added−radio activity of non-specific binding)÷(radio activity when a solvent is added−radio activity of non-specific binding)×100. An IC50 value was calculated based on the concentration dependent reaction using a non-linear analysis program and a Ki value was calculated using Cheng-Prussoff formula.
Counter-ions that a name gives are not always drawn.
Recorded Ki by entry
Value expressed in µM; do not type the unit.

Example entries and their recorded answers appear below.
CC#CCn1c(N[C@@H](C)c2ccc(C(F)(F)F)cc2)nc2c(c1=O)CN(C(=O)c1cc3ccccn3n1)CC2 [Example 2411, hydrochloride]    0.02
COn1c(N[C@@H](C)c2ccc(C(F)(F)F)cc2)nc2c(c1=O)CN(C(=O)c1ccc3c(c1)OCCO3)CC2 [Example 2459]    0.01
C[C@H](Nc1nc2c(c(=O)n1N(C)C)CN(C(=O)COc1ccc(Cl)cc1)CC2)c1ccc(C(F)(F)F)cc1 [Example 2442, hydrochloride]    0.14
C=Cc1ccc(C(=O)N2CCc3nc(N[C@@H](C)c4ccc(C(F)(F)F)cc4)n(OC)c(=O)c3C2)cc1 [Example 2456]    0.006
C#CCCn1c(N[C@@H](C)c2ccc(C(F)(F)F)cc2)nc2c(c1=O)CN(C(=O)c1ccc(C(=O)N(C)C)cc1)CC2 [Example 2494]    0.201

Now for another entry.
CCOn1c(N[C@H](C)c2ccc(C(F)(F)F)cc2)nc2c(c1=O)CN(C(=O)c1ccc(-c3cnco3)cc1)CC2 [Example 104] yielded Ki of 0.02

###

assayed_system: human GPR10 (Homo sapiens (Human), UniProt P49683)
assay_details: Inhibitory activity on binding of [3H]-PrRP to GPR10 (HEK 293 cell membrane fraction)
assay_setup: [3H]-PrRP 1 nM, human GPR10-expressing HEK 293 cell membrane fraction; Ki from IC50 by Cheng-Prussoff formula
Ki listing for selected compounds.
Answer in nM, number only, no unit symbol.

Given item C#CCCn1c(N[C@@H](C)c2ccc(C(F)(F)F)cc2)nc2c(c1=O)CN(C(=O)c1ccc(C)cc1)CC2 , the value recorded as its Ki is 41

Entry C[C@@H](Nc1nc2c(c(=O)n1N1CCCC1)CN(C(=O)c1ccc(C#N)cc1F)CC2)c1ccc(C(F)(F)F)cc1 , Ki reported as 6

The compound listed as COn1c(N[C@@H](C)c2ccc(C(F)(F)F)cc2)nc2c(c1=O)CN(C(=O)c1ccc(C)c(F)c1)CC2 shows Ki equal to 8

Briefly, Ki measured for COn1c(N[C@@H](C)c2ccc(C(F)(F)F)cc2)nc2c(c1=O)CN(C(=O)c1cc3occc3n1C)CC2 : 10

Per the records, this compound ( CC#CCn1c(N[C@@H](C)c2ccc(C(F)(F)F)cc2)nc2c(c1=O)CN(C(=O)c1ccc3ccccc3n1)CC2 ) has Ki equal to 24

Lab note: measured Ki of COn1c(N[C@H](c2ccc(Cl)cc2)C(C)C)nc2c(c1=O)CN(C(=O)c1cc3ccccn3n1)CC2 was 13

The reported Ki of the compound COn1c(N[C@H](c2ccc(Cl)cc2)C(C)C)nc2c(c1=O)CN(C(=O)c1ccc3c(c1)CCC(=O)N3C)CC2 was 24

###

assayed_system: human GPR10 (Homo sapiens (Human), UniProt P49683)
assay_details: Inhibitory activity on binding of [3H]-PrRP to GPR10 (HEK 293 cell membrane fraction)
assay_setup: [3H]-PrRP 1 nM, human GPR10-expressing HEK 293 cell membrane fraction; Ki from IC50 by Cheng-Prussoff formula
Counter-ions that a name gives are not always drawn.
Assign labels as follows, please: YES for Ki below 10 nM; NO for Ki equal to or exceeding 10 nM.

Answered examples (2):
CC#CCn1c(N[C@@H](C)c2ccc(C(F)(F)F)cc2)nc2c(c1=O)CN(C(=O)c1ccc3c(c1)CCC(=O)N3)CC2 [Example 2412, hydrochloride]    YES
C#CCn1c(N[C@@H](C)c2ccc(C(F)(F)F)cc2)nc2c(c1=O)CN(C(=O)c1cccc(C#N)c1)CC2    YES

**Query** Regarding CC#CCn1c(N[C@@H](C)c2ccc(C(F)(F)F)cc2)nc2c(c1=O)CN(C(=O)c1ccc3c(c1)OCO3)CC2 , kindly confirm whether its Ki is beneath 10 nM.
**Result** NO

**Query** Problem: For the compound COn1c(N[C@H](c2ccc(Cl)cc2)C(C)C)nc2c(c1=O)CN(C(=O)c1ccc3c(c1)OCCO3)CC2 , is Ki under 10 nM?
**Result** NO

**Query** Hi there! Is Ki for CC#CCn1c(N[C@@H](C)c2ccc(C(F)(F)F)cc2)nc2c(c1=O)CN(C(=O)c1ccc(C#N)cc1)CC2 [Example 2407, hydrochloride] below 10 nM, do you know?
**Result** YES

**Query** Strictly below 10 nM in Ki? CC(C)COn1c(N[C@@H](C)c2ccc(C(F)(F)F)cc2)nc2c(c1=O)CN(C(=O)c1ccc(C#N)cc1F)CC2
**Result** NO

**Query** Is 10 nM strictly greater than the compound's reported Ki? compound: COn1c(N2CCCC2c2ccc(C(F)(F)F)cc2)nc2c(c1=O)CN(C(=O)c1ccc(Cl)cc1)CC2 (stereo not shown)
**Result** NO

**Query** Lab log: compare recorded Ki with 10 nM; is it strictly lower for C[C@H](Nc1nc2c(c(=O)n1N1CCOCC1)CN(C(=O)c1ccc(C#N)cc1)CC2)c1ccc(C(F)(F)F)cc1 [Example 2432, hydrochloride] ?
**Result** NO

**Query** Is Ki of C#CCCn1c(N[C@@H](C)c2ccc(C(F)(F)F)cc2)nc2c(c1=O)CN(C(=O)c1ccc(C#N)cc1F)CC2 strictly below 10 nM?
**Result** YES

**Query** Quick check: does COn1c(N[C@H](c2ccc(Cl)cc2)C(C)C)nc2c(c1=O)CN(C(=O)c1cc3ccccc3cn1)CC2 have Ki under 10 nM?
**Result** NO

**Query** Confirm or reject: Ki of COn1c(N[C@@H](C)c2ccc(Cl)cc2)nc2c(c1=O)CN(C(=O)c1cc3cccnc3s1)CC2 [Example 2495, hydrochloride] lies strictly below 10 nM
**Result** YES

**Query** Lab note: confirm whether the reported Ki for this compound is below 10 nM, equality not counting. compound: CC#CCn1c(N[C@@H](C)c2ccc(C(F)(F)F)cc2)nc2c(c1=O)CN(C(=O)c1cnc3ccccc3c1)CC2
**Result** NO

###

Quick list: pKi per entry.
assayed_system: human GPR10 (Homo sapiens (Human))
assay_details: Inhibitory activity on binding of [3H]-PrRP to GPR10 (HEK 293 cell membrane fraction)
assay_setup: [3H]-PrRP 1 nM, human GPR10-expressing HEK 293 cell membrane fraction; Ki from IC50 by Cheng-Prussoff formula
Where a name gives a salt, the structure may show the parent alone.
Scale note: pKi = -log10(concentration in M).

Examples with their reported pKi follow.
COn1c(N[C@@H](C)c2ccc(C(F)(F)F)cc2)nc2c(c1=O)CN(C(=O)COc1ccc(C#N)cc1)CC2    8.22
COc1ccc(C(=O)N2CCc3nc(N[C@@H](C)c4ccc(C(F)(F)F)cc4)n(OC)c(=O)c3C2)c(OC)n1    8.15
C#CCCn1c(N[C@@H](C)c2ccc(C(F)(F)F)cc2)nc2c(c1=O)CN(C(=O)c1ccc(-c3cnco3)cc1)CC2    7.59
COn1c(N[C@@H](C)c2ccc(C(F)(F)F)cc2)nc2c(c1=O)CN(C(=O)CCc1ccc(Cl)cc1)CC2    6.87
C[C@H](Nc1nc2c(c(=O)n1N(C)C)CN(C(=O)COc1ccc(Cl)cc1)CC2)c1ccc(Cl)cc1    6.68

Sample COn1c(NC(c2ccc(Cl)cc2)C(C)C)nc2c(c1=O)CN(C(=O)c1ccc(Cl)cc1)CC2 (stereo not shown) , system: human GPR10 (Homo sapiens (Human)). Its pKi is 7.43

pKi value, target or system human GPR10 (Homo sapiens (Human)), for COn1c(NCc2ccc(C(F)(F)F)cc2)nc2c(c1=O)CN(C(=O)c1ccc(Cl)cc1)CC2 [Example 2477, hydrochloride] : 7.41
